Where do the numbers come from? From ChEMBL document CHEMBL1132410.

measured-on: Cytochrome P450 2C9 (Homo sapiens, UniProt P11712)
Sequence (P11712 whole entry): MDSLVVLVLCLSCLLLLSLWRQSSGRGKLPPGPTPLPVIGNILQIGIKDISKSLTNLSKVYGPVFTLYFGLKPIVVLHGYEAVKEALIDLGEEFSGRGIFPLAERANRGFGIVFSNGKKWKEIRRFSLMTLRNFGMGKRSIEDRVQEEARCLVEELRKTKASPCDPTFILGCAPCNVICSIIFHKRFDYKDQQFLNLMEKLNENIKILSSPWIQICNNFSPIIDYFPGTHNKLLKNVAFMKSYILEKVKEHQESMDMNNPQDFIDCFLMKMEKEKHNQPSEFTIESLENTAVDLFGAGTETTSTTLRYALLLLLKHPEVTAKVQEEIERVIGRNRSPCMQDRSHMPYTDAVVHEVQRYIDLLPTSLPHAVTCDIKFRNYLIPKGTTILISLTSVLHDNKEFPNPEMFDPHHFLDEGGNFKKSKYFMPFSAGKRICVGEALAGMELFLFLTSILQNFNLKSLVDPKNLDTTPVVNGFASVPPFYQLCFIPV
measurement-notes: Inhibitory potential of human cytochrome P450 2C9 as Tolbutamide methylhydroxylation (100 uM)
Assay type: ADME
pIC50: −log10 of the molar value.
result-type: pIC50

Qu. For the compound COc1ccc(NS(=O)(=O)c2sc3ccc(Cl)cc3c2C)cc1N1CCNCC1 , give its measured pIC50 value.
Ans. < 4.00

---

measured-on: Alpha-1B adrenergic receptor (Homo sapiens)
Sequence (P35368 whole entry): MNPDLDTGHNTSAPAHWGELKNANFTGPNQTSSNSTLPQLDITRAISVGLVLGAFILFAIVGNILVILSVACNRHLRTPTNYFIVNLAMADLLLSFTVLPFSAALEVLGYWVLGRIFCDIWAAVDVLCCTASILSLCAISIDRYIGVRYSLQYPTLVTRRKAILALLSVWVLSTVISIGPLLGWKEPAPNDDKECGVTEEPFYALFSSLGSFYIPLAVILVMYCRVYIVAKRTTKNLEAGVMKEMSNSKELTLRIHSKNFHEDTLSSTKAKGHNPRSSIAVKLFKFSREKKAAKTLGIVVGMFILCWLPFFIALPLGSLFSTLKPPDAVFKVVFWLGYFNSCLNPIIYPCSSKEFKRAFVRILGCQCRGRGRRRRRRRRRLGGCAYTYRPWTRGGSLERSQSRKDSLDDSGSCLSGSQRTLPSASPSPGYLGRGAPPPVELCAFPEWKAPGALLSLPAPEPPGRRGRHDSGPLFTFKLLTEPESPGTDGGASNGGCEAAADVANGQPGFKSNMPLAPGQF
measurement-notes: Compound was tested for its binding affinity against Alpha-1B adrenergic receptor
result-type: Ki (µM)
Numbers only, in µM.

Qu. For the compound COc1ccc(NS(=O)(=O)c2sc3ccc(Cl)cc3c2C)cc1N1CCN(C)CC1 , give its measured Ki value.
Ans. 2

---

measured-on: 5-hydroxytryptamine receptor 2C (Homo sapiens)
Sequence (P28335 whole entry): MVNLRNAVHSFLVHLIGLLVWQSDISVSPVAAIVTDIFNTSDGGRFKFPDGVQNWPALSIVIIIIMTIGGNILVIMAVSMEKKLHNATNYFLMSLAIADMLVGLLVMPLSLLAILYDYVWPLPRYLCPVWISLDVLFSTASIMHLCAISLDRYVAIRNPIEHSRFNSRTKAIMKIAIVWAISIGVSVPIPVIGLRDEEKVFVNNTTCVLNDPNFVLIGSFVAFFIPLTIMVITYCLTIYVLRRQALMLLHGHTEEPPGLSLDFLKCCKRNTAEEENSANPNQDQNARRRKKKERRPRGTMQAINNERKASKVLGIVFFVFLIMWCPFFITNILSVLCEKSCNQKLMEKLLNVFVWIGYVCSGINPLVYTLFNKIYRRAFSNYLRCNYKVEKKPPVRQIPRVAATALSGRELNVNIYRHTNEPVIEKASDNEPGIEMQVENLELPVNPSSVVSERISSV
measurement-notes: Compound was tested for its binding affinity against human cloned 5-hydroxytryptamine 2C receptor in HEK 293 cells using [3H]mesulergine
result-type: pKi
Answers are plain numbers, as −log10 of the molar value.

>>> observed_result("COc1ccc(NS(=O)(=O)c2ccc(Br)cc2)cc1N1CCN(C)CC1")
6.00

Respectfully, I request pKi for each entry included below.
1. COc1ccc(NS(=O)(=O)c2sc3ccc(Cl)cc3c2C)cc1N1CCNCC1
2. COc1ccc(NS(=O)(=O)c2sc3ccc(Cl)cc3c2C)cc1N1CCN(C)CC1

Ans.
1: 5.70; 2: 6.30

---

measured-on: 5-hydroxytryptamine receptor 2A (Homo sapiens, UniProt P28223)
Sequence (P28223 whole entry): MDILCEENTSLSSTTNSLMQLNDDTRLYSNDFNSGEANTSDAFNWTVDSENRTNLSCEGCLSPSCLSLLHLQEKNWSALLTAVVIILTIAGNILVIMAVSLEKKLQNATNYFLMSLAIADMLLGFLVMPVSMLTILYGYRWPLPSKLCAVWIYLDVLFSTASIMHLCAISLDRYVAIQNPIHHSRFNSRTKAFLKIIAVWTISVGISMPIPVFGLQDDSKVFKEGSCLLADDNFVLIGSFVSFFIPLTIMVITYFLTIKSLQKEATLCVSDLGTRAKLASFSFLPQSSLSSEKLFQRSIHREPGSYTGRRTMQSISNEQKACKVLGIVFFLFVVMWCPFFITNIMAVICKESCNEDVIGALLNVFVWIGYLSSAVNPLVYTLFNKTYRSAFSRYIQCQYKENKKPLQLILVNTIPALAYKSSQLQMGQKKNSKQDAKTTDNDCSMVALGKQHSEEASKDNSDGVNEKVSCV
measurement-notes: Compound was tested for its binding affinity against 5-hydroxytryptamine 2A receptor in human cloned receptors in HEK 293 cells using [3H]ketanserin
result-type: pKi
One number for each entry, as −log10 of the molar value.

>>> observed_result("COc1ccc(NS(=O)(=O)c2sc3ccc(Cl)cc3c2C)cc1N1CCN(C)CC1")
6.00

Okay, next one:
Qu. For the molecule COc1ccc(NS(=O)(=O)c2ccc(Br)cc2)cc1N1CCN(C)CC1 , give its measured pKi value.
Ans. 5.90

---

measured-on: 5-hydroxytryptamine receptor 1F (Homo sapiens, UniProt P30939)
Sequence (P30939 whole entry): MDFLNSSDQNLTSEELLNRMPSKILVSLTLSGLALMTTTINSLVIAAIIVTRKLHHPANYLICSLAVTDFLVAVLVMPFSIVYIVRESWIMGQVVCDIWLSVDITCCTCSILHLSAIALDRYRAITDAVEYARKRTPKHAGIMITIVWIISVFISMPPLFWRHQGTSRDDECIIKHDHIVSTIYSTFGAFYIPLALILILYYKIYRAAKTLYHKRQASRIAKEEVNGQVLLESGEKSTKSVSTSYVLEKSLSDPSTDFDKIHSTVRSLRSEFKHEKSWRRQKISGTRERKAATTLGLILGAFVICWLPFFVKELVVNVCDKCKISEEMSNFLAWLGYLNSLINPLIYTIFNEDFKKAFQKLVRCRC
measurement-notes: Compound was tested for its binding affinity against 5-hydroxytryptamine 1F receptor in human cloned receptors in CHO cells using [3H]5-HT
result-type: Ki (nM)
Give bare numbers, in nM.

>>> observed_result("COc1ccc(NS(=O)(=O)c2sc3ccc(Cl)cc3c2C)cc1N1CCN(C)CC1")
251

Okay, next one:
Qu. Give Ki for this entry on 5-hydroxytryptamine receptor 1F (Homo sapiens, UniProt P30939): COc1ccc(NS(=O)(=O)c2ccc(Br)cc2)cc1N1CCN(C)CC1
Ans. 316
